protocol: Terminal half life in mouse liver microsomes by LC-MS/MS analysis
Assay type: ADME, microsome
protocol.conditions: read-out: beta t1/2 (converted)
quantity.name: half-life (min)

> print(dat)
                        structure.as.smiles  quantity.name  obs.value
1  O=C(Nc1ccc(CN2CCOCC2)cc1)c1n[nH]cc1Nc1ncnc2sccc12      half-life        7.2
2  CN1CCN(Cc2ccc(NC(=O)c3n[nH]cc3Nc3ncnc4[nH]ccc34)cc2)CC1      half-life       39.6

====

protocol: Intrinsic clearance in rat liver microsomes by LC-MS/MS analysis
Type: ADME, microsome
protocol.conditions: read-out: CLH
Overview of recorded CLint scaled for various compounds
quantity.name: CLint scaled (mL/min/kg)

> print(dat)
                        structure.as.smiles  quantity.name  obs.value
1  O=C(Nc1ccc(CN2CCOCC2)cc1)c1n[nH]cc1Nc1ncnc2sccc12   CLint scaled        352
2  CN1CCN(Cc2ccc(NC(=O)c3n[nH]cc3Nc3ncnc4[nH]ccc34)cc2)CC1   CLint scaled       40.3
